assayed-system: human Nav1.8 (hNav1.8) ion channel (Homo sapiens, UniProt Q9Y5Y9)
Construct: expressed in transfected cells
Sequence (Q9Y5Y9 whole entry): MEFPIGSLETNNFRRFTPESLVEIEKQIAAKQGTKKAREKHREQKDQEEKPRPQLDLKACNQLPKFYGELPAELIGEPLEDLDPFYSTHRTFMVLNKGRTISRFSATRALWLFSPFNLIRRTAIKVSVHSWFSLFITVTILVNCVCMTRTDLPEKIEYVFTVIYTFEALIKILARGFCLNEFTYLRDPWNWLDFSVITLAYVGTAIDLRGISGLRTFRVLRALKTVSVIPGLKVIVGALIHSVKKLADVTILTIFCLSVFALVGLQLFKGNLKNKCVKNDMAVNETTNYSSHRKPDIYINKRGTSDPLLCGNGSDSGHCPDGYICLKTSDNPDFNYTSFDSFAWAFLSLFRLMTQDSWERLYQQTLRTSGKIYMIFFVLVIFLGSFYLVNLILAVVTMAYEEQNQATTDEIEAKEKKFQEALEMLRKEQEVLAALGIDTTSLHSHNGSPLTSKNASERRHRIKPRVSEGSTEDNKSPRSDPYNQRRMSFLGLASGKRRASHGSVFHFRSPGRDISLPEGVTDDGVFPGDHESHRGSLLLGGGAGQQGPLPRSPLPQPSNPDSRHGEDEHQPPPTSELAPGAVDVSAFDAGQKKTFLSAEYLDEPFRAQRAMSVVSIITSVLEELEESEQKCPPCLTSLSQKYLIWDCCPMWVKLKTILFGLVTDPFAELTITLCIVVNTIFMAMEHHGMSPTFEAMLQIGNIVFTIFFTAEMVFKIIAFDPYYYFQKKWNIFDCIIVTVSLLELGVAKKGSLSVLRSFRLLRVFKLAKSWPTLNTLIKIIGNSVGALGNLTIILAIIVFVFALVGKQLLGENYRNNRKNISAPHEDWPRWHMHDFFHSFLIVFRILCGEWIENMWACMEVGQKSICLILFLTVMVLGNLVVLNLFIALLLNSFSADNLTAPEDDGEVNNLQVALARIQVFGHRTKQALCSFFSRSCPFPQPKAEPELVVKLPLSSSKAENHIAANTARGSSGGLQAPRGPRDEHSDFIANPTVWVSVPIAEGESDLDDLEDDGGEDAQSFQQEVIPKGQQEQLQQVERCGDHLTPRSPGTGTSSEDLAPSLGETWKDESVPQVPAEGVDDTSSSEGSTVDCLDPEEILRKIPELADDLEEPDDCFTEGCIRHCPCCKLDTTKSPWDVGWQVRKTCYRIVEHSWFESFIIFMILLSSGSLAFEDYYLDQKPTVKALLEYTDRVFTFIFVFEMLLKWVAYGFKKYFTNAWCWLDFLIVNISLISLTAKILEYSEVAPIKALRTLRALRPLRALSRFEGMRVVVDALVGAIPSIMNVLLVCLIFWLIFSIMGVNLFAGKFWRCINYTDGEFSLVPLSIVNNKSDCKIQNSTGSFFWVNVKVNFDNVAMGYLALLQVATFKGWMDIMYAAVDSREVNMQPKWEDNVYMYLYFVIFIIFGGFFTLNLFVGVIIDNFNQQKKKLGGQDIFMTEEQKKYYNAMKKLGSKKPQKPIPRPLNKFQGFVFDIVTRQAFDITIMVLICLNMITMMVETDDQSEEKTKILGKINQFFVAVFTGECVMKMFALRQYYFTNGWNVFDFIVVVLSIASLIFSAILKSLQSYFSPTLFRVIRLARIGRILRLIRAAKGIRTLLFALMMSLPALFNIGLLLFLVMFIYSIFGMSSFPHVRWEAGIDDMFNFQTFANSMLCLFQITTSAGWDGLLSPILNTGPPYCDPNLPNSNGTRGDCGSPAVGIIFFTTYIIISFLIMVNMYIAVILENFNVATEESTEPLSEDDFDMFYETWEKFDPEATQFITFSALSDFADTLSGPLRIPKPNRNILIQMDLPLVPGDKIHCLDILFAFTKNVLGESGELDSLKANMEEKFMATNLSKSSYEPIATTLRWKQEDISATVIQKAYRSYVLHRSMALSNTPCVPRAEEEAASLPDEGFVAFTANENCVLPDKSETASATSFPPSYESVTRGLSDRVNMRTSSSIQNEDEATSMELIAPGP
experiment: Inhibition of human Nav1.8 stably expressed in SH-SY-5Y cells (membrane potential dye fluorescence assay)
Format: cell-based
condition-parameters: SH-SY-5Y hNav1.8 cells; FLIPR membrane potential dye; 10 μM pyrethroid, 250 nM TTX; test concentration range 100 μM-0.05 μM; read-out: hNav1.8 IC50
Listing: IC50 of selected compounds
# answer = value followed by unit

CC(c1ccccc1Cl)N1CC2CC1CN2C(=O)c1cc2cc(Cl)ccc2[nH]1 (centres unmarked)
18200 nM
CCCCOc1ccc(NC(=O)N2CC3CC2CN3Cc2sccc2C)cc1 (centres unmarked)
1030 nM
O=C(Nc1ccc(Oc2ccccc2)cc1)N1CCC2(CCN(Cc3ccccc3)C2)C1 (centres unmarked)
390 nM

Value lookup for IC50; key = O=C(Nc1ccc(Oc2cccc(F)c2)cc1)N1CC2CC1CN2C1Cc2ccccc2C1 (centres unmarked)
80 nM

Value lookup for IC50; key = Cc1ccsc1CN1CC2CC1CN2C(=O)Nc1ccc(Oc2ccccc2)cc1 (centres unmarked)
410 nM
